// MIC collected for S. marcescens IPM-15

Specify the recorded MIC for CO/N=C(\C(=O)NC1C(=O)N2C(C(=O)O)=C(/C=C/Cn3cnc4cc(O)c(O)cc43)CS[C@H]12)c1csc(N)n1 (stereo partly shown) , system: S. marcescens IPM-15.
> 100 µg/mL

Report measured MIC on S. marcescens IPM-15; entry: CC(C)(O/N=C(\C(=O)NC1C(=O)N2C(C(=O)[O-])=C(/C=C/C[n+]3cc4cc(O)c(O)cc4cn3)CS[C@H]12)c1csc(N)n1)C(=O)O (stereo partly shown)
> 100 µg/mL

Send back S. marcescens IPM-15 MIC of Nc1nc(/C(=N/O)C(=O)NC2C(=O)N3C(C(=O)O)=C(/C=C/Cn4ccc5cc(=O)c(O)cc-5c4)CS[C@H]23)cs1 (stereo partly shown) only.
> 100 µg/mL

Report value only: MIC, S. marcescens IPM-15, Nc1nc(/C(=N/O)C(=O)NC2C(=O)N3C(C(=O)O)=C(/C=C/Cn4cnc5cc(O)c(O)cc54)CS[C@H]23)cs1 (stereo partly shown)
100 µg/mL

* * *

Value Type: MIC (µg/mL)
Express the result in µg/mL but write the number alone.

# return MIC of CC(C)(O/N=C(\C(=O)NC1C(=O)N2C(C(=O)O)=C(/C=C/Cn3cnc4cc(O)c(O)cc43)CS[C@H]12)c1csc(N)n1)C(=O)O (stereo partly shown) [Io] (system: P. mirabilis IFO-2849)
0.2

Param request: MIC | system P. mirabilis IFO-2849 | item C[n+]1cn(C/C=C/C2=C(C(=O)[O-])N3C(=O)C(NC(=O)/C(=N\OC(C)(C)C(=O)O)c4csc(N)n4)C3SC2)c2cc(O)c(O)cc21 (stereo not shown) [Ip]
0.05

Fetch value of MIC on P. mirabilis IFO-2849 for Nc1nc(/C(=N/O)C(=O)NC2C(=O)N3C(C(=O)O)=C(/C=C/Cn4ccc5cc(=O)c(O)cc-5c4)CS[C@H]23)cs1 (stereo partly shown) [Is] .
0.4

Give measured MIC for CO/N=C(\C(=O)NC1C(=O)N2C(C(=O)O)=C(/C=C/Cn3cnc4cc(O)c(O)cc43)CS[C@H]12)c1csc(N)n1 (stereo partly shown) [Iu] (P. mirabilis IFO-2849).
0.1

* * *

- System: B. subtilis PCI 219
Would you kindly list MIC for each of these compounds?
Number only, in µg/mL; omit the unit.

// fetch MIC given entry C[n+]1cn(C/C=C/C2=C(C(=O)[O-])N3C(=O)C(NC(=O)/C(=N\OC(C)(C)C(=O)O)c4csc(N)n4)C3SC2)c2cc(O)c(O)cc21 (stereo not drawn)
12.5

Supply reported MIC belonging to this compound: CC(C)(O/N=C(\C(=O)NC1C(=O)N2C(C(=O)O)=C(/C=C/Cn3cnc4cc(O)c(O)cc43)CS[C@H]12)c1csc(N)n1)C(=O)O (stereo partly drawn)
12.5

Provide only the value of recorded MIC for Nc1nc(/C(=N/O)C(=O)NC2C(=O)N3C(C(=O)[O-])=C(/C=C/C[n+]4cc5cc(O)c(O)cc5cn4)CS[C@H]23)cs1 (stereo partly drawn)
0.4

* * *

Hi there, I'd appreciate the recorded MIC for every entry that follows.
Give just the numeric value; µg/mL need not be written.

Look up M. luteus 1001 data: MIC of CO/N=C(\C(=O)NC1C(=O)N2C(C(=O)O)=C(/C=C/Cn3cnc4cc(O)c(O)cc43)CS[C@H]12)c1csc(N)n1 (stereo partly shown) [Iu] , then report it.
0.8

Tell me its MIC on M. luteus 1001: C[n+]1cn(C/C=C/C2=C(C(=O)[O-])N3C(=O)C(NC(=O)/C(=N\OC(C)(C)C(=O)O)c4csc(N)n4)C3SC2)c2cc(O)c(O)cc21 (stereo not shown) [Ip]
3.1

Lab note: M. luteus 1001 assay, enter MIC for CC(C)(O/N=C(\C(=O)NC1C(=O)N2C(C(=O)[O-])=C(/C=C/C[n+]3cc4cc(O)c(O)cc4cn3)CS[C@H]12)c1csc(N)n1)C(=O)O (stereo partly shown) [Ii] here
3.1

Determine reported MIC for Nc1nc(/C(=N/O)C(=O)NC2C(=O)N3C(C(=O)O)=C(/C=C/Cn4cnc5cc(O)c(O)cc54)CS[C@H]23)cs1 (stereo partly shown) [Ir] ; test system: M. luteus 1001.
0.8

* * *

Parameter MIC, tested on E. faecium A24817, listed per item.

# assay system E. faecium A24817: give MIC of CO/N=C(\C(=O)NC1C(=O)N2C(C(=O)O)=C(/C=C/Cn3cnc4cc(O)c(O)cc43)CS[C@H]12)c1csc(N)n1 (stereo partly shown)
> 100 µg/mL

Report MIC on E. faecium A24817 for this entry: C[n+]1cn(C/C=C/C2=C(C(=O)[O-])N3C(=O)C(NC(=O)/C(=N\OC(C)(C)C(=O)O)c4csc(N)n4)C3SC2)c2cc(O)c(O)cc21 (stereo not shown)
> 100 µg/mL

// fetch MIC for CC(C)(O/N=C(\C(=O)NC1C(=O)N2C(C(=O)[O-])=C(/C=C/C[n+]3cc4cc(O)c(O)cc4cn3)CS[C@H]12)c1csc(N)n1)C(=O)O (stereo partly shown) ; system: E. faecium A24817
> 100 µg/mL

// fetch MIC for CC(C)(O/N=C(\C(=O)NC1C(=O)N2C(C(=O)O)=C(/C=C/Cn3cnc4cc(O)c(O)cc43)CS[C@H]12)c1csc(N)n1)C(=O)O (stereo partly shown) ; system: E. faecium A24817
> 100 µg/mL

Provide measured MIC on E. faecium A24817 for Nc1nc(/C(=N/O)C(=O)NC2C(=O)N3C(C(=O)O)=C(/C=C/Cn4ccc5cc(=O)c(O)cc-5c4)CS[C@H]23)cs1 (stereo partly shown) please.
100 µg/mL

Under E. faecium A24817: report MIC of Nc1nc(/C(=N/O)C(=O)NC2C(=O)N3C(C(=O)O)=C(/C=C/Cn4cnc5cc(O)c(O)cc54)CS[C@H]23)cs1 (stereo partly shown) .
> 100 µg/mL

Find the measured MIC of Nc1nc(/C(=N/O)C(=O)NC2C(=O)N3C(C(=O)[O-])=C(/C=C/C[n+]4cc5cc(O)c(O)cc5cn4)CS[C@H]23)cs1 (stereo partly shown) with E. faecium A24817 as test system.
50 µg/mL

* * *

- Tested on: M. morgani 1510/9
- Assay Procedure: MIC, agar dilution
- Assay type: cell-based
- Study Conditions: Mueller-Hinton agar pH 7.2, 32° C., 18 hr, 10^6 cells/ml
Value Type: MIC
Write your answer as a measured quantity: the number, then the unit.

Note MIC for the compound shown: CO/N=C(\C(=O)NC1C(=O)N2C(C(=O)O)=C(/C=C/Cn3cnc4cc(O)c(O)cc43)CS[C@H]12)c1csc(N)n1 (stereo partly shown) [Iu]
0.4 µg/mL

Return MIC (reported value) for this compound: CC(C)(O/N=C(\C(=O)NC1C(=O)N2C(C(=O)O)=C(/C=C/Cn3cnc4cc(O)c(O)cc43)CS[C@H]12)c1csc(N)n1)C(=O)O (stereo partly shown) [Io]
0.8 µg/mL

For the compound Nc1nc(/C(=N/O)C(=O)NC2C(=O)N3C(C(=O)O)=C(/C=C/Cn4cnc5cc(O)c(O)cc54)CS[C@H]23)cs1 (stereo partly shown) [Ir] , give its reported MIC.
0.8 µg/mL

Report measured MIC; entry is Nc1nc(/C(=N/O)C(=O)NC2C(=O)N3C(C(=O)O)=C(/C=C/Cn4ccc5cc(=O)c(O)cc-5c4)CS[C@H]23)cs1 (stereo partly shown) [Is]
0.2 µg/mL

* * *

- Tested on: P. aeruginosa A9843A
- Assay Procedure: In vivo antibacterial activity, P. aeruginosa A9843A infection
- Set-up: species or system mice
- Study Conditions: Pseudomonas aeruginosa, A9843A, in Mus musculus, im, read-out: PD50
Value Type: ED50 (mg/kg)
Provide the reading as a plain figure in mg/kg.

Give the observed ED50 of CC(C)(O/N=C(\C(=O)NC1C(=O)N2C(C(=O)[O-])=C(/C=C/C[N+]3(C)Cc4cc(O)c(O)cc4C3)CSC12)c1csc(N)n1)C(=O)O (centres unmarked) [Compound Ia] for P. aeruginosa A9843A.
2

Report measured ED50 on P. aeruginosa A9843A; entry: CO/N=C(\C(=O)NC1C(=O)N2C(C(=O)[O-])=C(/C=C/C[N+]3(C)Cc4cc(O)c(O)cc4C3)CS[C@H]12)c1csc(N)n1 (some centres unmarked) [Compound Id]
6.8

Give reported ED50 for CC(C)(O/N=C(\C(=O)NC1C(=O)N2C(C(=O)[O-])=C(/C=C\C[N+]3(C)Cc4cc(O)c(O)cc4C3)CS[C@H]12)c1csc(N)n1)C(=O)O (some centres unmarked) [Compound Ib] (P. aeruginosa A9843A)
2

State ED50 on P. aeruginosa A9843A. Entry: CO/N=C(\C(=O)NC1C(=O)N2C(C(=O)[O-])=C(/C=C\C[N+]3(C)Cc4cc(O)c(O)cc4C3)CS[C@H]12)c1csc(N)n1 (some centres unmarked) [Compound Ie]
9.9

Write down the reported ED50 (system: P. aeruginosa A9843A) of CC(C)(O/N=C(\C(=O)NC1C(=O)N2C(C(=O)O)=C(/C=C/Cn3ccc4cc(=O)c(O)cc-4c3)CS[C@H]12)c1csc(N)n1)C(=O)O (some centres unmarked) [Iv]
0.17
